FYI, the data here is from patent US10689378B2.

target: EED (1-441)-His protein (Homo sapiens); construct: 30 nM EED (1-441)-His protein; test: EED-H3K27Me3 peptide competition binding assay by AlphaScreen; conditions: read-out: (a) IC50, EED Alphascreen binding Qualified
Sequence (O75530 whole entry): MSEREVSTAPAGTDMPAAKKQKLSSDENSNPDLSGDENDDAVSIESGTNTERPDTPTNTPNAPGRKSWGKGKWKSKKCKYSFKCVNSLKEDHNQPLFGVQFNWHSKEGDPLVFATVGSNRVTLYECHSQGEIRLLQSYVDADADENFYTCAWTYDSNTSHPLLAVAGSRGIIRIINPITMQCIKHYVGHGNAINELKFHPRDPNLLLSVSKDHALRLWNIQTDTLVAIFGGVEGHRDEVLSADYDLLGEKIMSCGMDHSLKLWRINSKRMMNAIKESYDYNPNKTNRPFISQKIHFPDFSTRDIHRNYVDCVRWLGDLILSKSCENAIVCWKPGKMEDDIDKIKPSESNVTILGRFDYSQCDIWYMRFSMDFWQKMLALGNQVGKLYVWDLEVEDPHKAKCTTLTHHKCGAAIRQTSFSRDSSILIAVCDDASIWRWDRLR
// assign y if IC50 falls strictly below 90 nM, else n (ties count as n)

Dear colleague, could you confirm whether IC50 of COc1ccccc1CNc1ccc(-c2cccc(CN(C)C)c2)c2nncn12 falls below 90 nM? Thanks.
y

# check: IC50 < 90 nM for COc1cc(F)c(F)cc1CNc1ccc(-c2ccc(CN(C)C)cc2)c2nncn12
n

Problem: For the molecule COc1cccc(F)c1CNc1ccc(-c2ccc(C(=O)N3CCCC3)cc2)c2nncn12 , is IC50 under 90 nM?
y

Consider COc1c(F)cc(F)cc1CNc1ccc(-c2ccc(CN(C)C)cc2)c2nncn12 . Does its IC50 lie strictly below 90 nM?
n

Field: below-cutoff. Rule: recorded IC50 strictly less than 90 nM. Subject: COc1ccccc1CNc1ccc(-c2ccnc(N3CCN(C)CC3)c2)c2nncn12
y

Is 90 nM strictly greater than the molecule's reported IC50? molecule: COc1ccc(-c2ccc(NCc3ccccc3OC)n3cnnc23)cn1
y

Check if IC50 falls below 90 nM for COc1ccccc1CNc1ccc(-c2ccc(C[N+](C)(C)[O-])cc2)c2nncn12 .
y

Given COc1ccccc1CNc1ccc(-c2ccc(N3CCOCC3)c(Cl)c2)c2nncn12 , is recorded IC50 strictly lower than 90 nM?
n

----------
Tested on: H3K27 methylation in G401 cell
Test: ELISA (H3K27 methylation) assay in G401 cells
Assay type: cell-based, human
Conditions: Homo sapiens, G-401, H3K27 methylation ELISA, read-out: (c) IC50 ELISA Qualified
Procedure: Compounds of the present invention were assessed for their ability to inhibit PRC2 activity in a pentameric complex of EZH2, SUZ12, EED, Rbap48 and AEBP in biochemical assays. The ability of compounds of the present invention to inhibit cellular activity of PRC2 was assessed by analysing histone H3 lysine 27 methylation in human cell lines. […]
We label by threshold. Values of IC50 strictly beneath 30 nM are criterion met. Values of 30 nM and up are criterion not met.

Does this molecule meet the criterion IC50 < 30 nM? COc1cccc(F)c1CNc1ccc(-c2cncc(C(=O)N(C)C)c2)c2nncn12 [Example 195]
criterion met

Here's an entry: COc1cc(F)cc(F)c1CNc1ccc(-c2ccncc2)c2nncn12 [Example 228] . Is its IC50 below 30 nM?
criterion not met

Say whether its IC50 is strictly beneath 30 nM. Entry: COc1cccc(F)c1CNc1ccc(-c2ccc(C#N)nc2C)c2nncn12 [Example 250]
criterion met

Given COc1cc(F)cc(F)c1CNc1ccc(-c2ccc(C#N)nc2C)c2nncn12 [Example 324] , is recorded IC50 strictly lower than 30 nM?
criterion met

Hello, is IC50 of the following molecule strictly smaller than 30 nM? COc1cccc(F)c1CNc1ccc(-c2cc(F)ccc2C)c2nncn12 [Example 223]
criterion not met

Check if IC50 falls below 30 nM for COc1cccc(F)c1CNc1ccc(-c2ccccc2C)c2nncn12 [Example 211] .
criterion not met

Decide: IC50 of COc1cccc(F)c1CNc1ccc(-c2cccnc2C(F)F)c2nncn12 [Example 265] strictly below 30 nM?
criterion met

Is it true that IC50 reported for COc1cccc(F)c1CNc1ccc(-c2ccc(CCC(=O)N(C)C)nc2)c2nncn12 [Example 234] is less than 30 nM?
criterion met

API: query returns whether the molecule falls strictly under 30 nM in IC50. Query: COc1cccc(F)c1CNc1ccc(-c2ccc(O)nc2C)c2nncn12 [Example 309]
criterion met
